Where these numbers come from: ChEMBL document CHEMBL1800011

- System: Leishmania donovani
- test.details: Inhibition of Leishmania donovani CRK3/CYC6 activity expressed in Escherichia coli using 15 uM ATP at 30 uM
test.readout: inhibition (%)

INSERT INTO results (compound, test_readout, display_unit, data_value) VALUES
  ('COc1ccc(CNc2ncnc3c(C(C)C)n[nH]c23)cc1O', 'inhibition', '%', 46.8),
  ('CC(C)n1cnc2c(Nc3ccc(F)cc3)ncnc21', 'inhibition', '%', 53.3),
  ('CC(C)c1n[nH]c2c(Nc3ccccc3Br)ncnc12', 'inhibition', '%', 35.6),
  ('CC(C)c1n[nH]c2c(Nc3cccc(Cl)c3)ncnc12', 'inhibition', '%', 81.3),
  ('CC(C)n1cnc2c(NC3CCC(N)CC3)ncnc21 (stereo unspecified)', 'inhibition', '%', 26.4),
  ('CC(C)c1n[nH]c2c(NCc3ccccc3N)ncnc12', 'inhibition', '%', 42.3);

---

- Tested on: Leishmania donovani
- test.details: Inhibition of Leishmania donovani CRK3/CYC6 activity expressed in Escherichia coli using 15 uM ATP at 30 uM
test.readout: inhibition (%)

INSERT INTO assay_data (compound, test_readout, display_unit, data_value) VALUES
  ('COc1ccc(CNc2ncnc3c(C(C)C)n[nH]c23)cc1', 'inhibition', '%', 36),
  ('CC(C)c1n[nH]c2c(Nc3cccc(F)c3)ncnc12', 'inhibition', '%', 70.4),
  ('CC(C)c1n[nH]c2c(NCc3cccc(O)c3)ncnc12', 'inhibition', '%', 35.8),
  ('CC(C)c1n[nH]c2c(NC34CC5CC(CC(C5)C3)C4)ncnc12', 'inhibition', '%', 93.8),
  ('CC(C)c1n[nH]c2c(NCc3ccco3)ncnc12', 'inhibition', '%', 28.5),
  ('COc1cc(CNc2ncnc3c(C(C)C)n[nH]c23)ccc1O', 'inhibition', '%', 41),
  ('CC(C)=CCNc1ncnc2c(C(C)C)n[nH]c12', 'inhibition', '%', 32.5),
  ('CC(C)n1cnc2c(Nc3cccc(Cl)c3)ncnc21', 'inhibition', '%', 22.3),
  ('CC(C)n1cnc2c(NCc3ccccc3O)ncnc21', 'inhibition', '%', -2.8),
  ('CC(C)=CCNc1ncnc2c1ncn2C(C)C', 'inhibition', '%', 3.2),
  ('CC(C)n1cnc2c(NCc3ccccc3)ncnc21', 'inhibition', '%', 18.5),
  ('COc1cc(CNc2ncnc3c2ncn3C(C)C)ccc1O', 'inhibition', '%', 11.9),
  ('CC(C)n1cnc2c(NCc3ccco3)ncnc21', 'inhibition', '%', 3.5),
  ('CC(C)n1cnc2c(NC3CCCCC3N)ncnc21 (stereo unspecified)', 'inhibition', '%', -5.4),
  ('CC(C)c1n[nH]c2c(NCc3ccccc3)ncnc12', 'inhibition', '%', 24.5),
  ('CCCCCNc1ncnc2c(C(C)C)n[nH]c12', 'inhibition', '%', 46.5),
  ('COc1ccc(CNc2ncnc3c(C(C)C)n[nH]c23)cc1OC', 'inhibition', '%', 19.9),
  ('CC(C)n1cnc2c(Nc3ccccc3Br)ncnc21', 'inhibition', '%', 1.8),
  ('CCCCCNc1ncnc2c1ncn2C(C)C', 'inhibition', '%', 14.8),
  ('COc1ccc(CNc2ncnc3c2ncn3C(C)C)cc1OC', 'inhibition', '%', -2.3),
  ('CC(C)c1n[nH]c2c(NC3CCCCC3N)ncnc12 (stereo unspecified)', 'inhibition', '%', 2.4);
